Every entry's value here was drawn from patent US20230219965A1.

Collected half-life at 1 μM values appear next to each entry.
Test: Liver microsomal metabolic stability, human liver microsomes (HLM)
Settings: human, liver microsomes

>  <compound>
CCn1cc(C(F)(F)F)nc1-c1ccc(C(C)N2C(=O)CCn3nc(-c4c(Cl)cnn4C(C)C)cc32)cc1F (centres unmarked) [Example 119]

>  <half-life at 1 μM>
> 25 min

$$$$
>  <compound>
COc1ncnc(C)c1-c1cc2n(n1)CCCN2Cc1ccc(-c2nc(C(F)(F)F)cn2C)cc1 [Example 25]

>  <half-life at 1 μM>
< 25 min

$$$$
>  <compound>
CCn1cc(C(F)(F)F)nc1-c1ccc(Cn2c(=O)ccn3nc(-c4c(Cl)cnn4C(C)C)nc23)cc1F [Example 343]

>  <half-life at 1 μM>
> 25 min

$$$$
>  <compound>
CCn1cc(C(F)(F)F)nc1-c1c(F)cc(CN2C(=O)CCn3nc(-c4c(Cl)cnn4C(C)C)cc32)cc1OC [Example 141]

>  <half-life at 1 μM>
> 25 min

$$$$
>  <compound>
CCn1cc(C(F)(F)F)nc1-c1ccc([C@@H](C)N2C(=O)CCn3nc(-c4c(Cl)cnn4C(C)C)nc32)cc1F [Example 182]

>  <half-life at 1 μM>
< 25 min

$$$$
>  <compound>
CCn1cc(C(F)(F)F)nc1-c1ccc([C@@H](C)n2c(=O)ccn3nc(-c4c(OC)ncnc4C4CC4)cc23)cc1 [Example 335]

>  <half-life at 1 μM>
> 25 min

$$$$
>  <compound>
CCn1cc(C(F)(F)F)nc1-c1ccc([C@H](C)N2C(=O)CCn3nc(-c4c(OC)ncnc4C4CC4)cc32)cc1F [Example 142]

>  <half-life at 1 μM>
> 25 min

$$$$
>  <compound>
COc1ccc(C)nc1-c1ccc(CN2C(=O)CCn3nc(-c4c(Cl)cnn4C(C)C)cc32)cc1Cl [Example 309]

>  <half-life at 1 μM>
< 25 min

$$$$
>  <compound>
COc1ncnc(C2CC2)c1-c1nc2n(n1)CCC(=O)N2[C@@H](C)c1ccc(-c2nc(C(F)(F)F)cn2C(C)C)cc1 [Example 188]

>  <half-life at 1 μM>
> 25 min

$$$$
>  <compound>
CC(C)n1ncc(Cl)c1-c1nc2n(n1)CCC(=O)N2Cc1ccc(-c2nc(C(F)(F)F)cn2C)cc1 [Example 39]

>  <half-life at 1 μM>
> 25 min

$$$$

Request: Please report the measured half-life at 1 μM for CCn1cc(C(F)(F)F)nc1-c1ccc(CN2C(=O)C(NC)Cn3nc(-c4c(Cl)cnn4C(C)C)cc32)cc1 (centres unmarked) [Example 236]
Result: < 25 min

Request: Respond only with half-life at 1 μM recorded for CCn1cc(C(F)(F)F)nc1-c1ccc([C@H](C)N2CCCn3nc(-c4c(Cl)cnn4C(C)C)cc32)cc1 (single isomer, unassigned) [Example 67]
Result: < 25 min

Request: Kindly indicate its recorded half-life at 1 μM. Item: COc1ncnc(C2CC2)c1-c1nc2n(n1)CCC(=O)N2Cc1ccc(-c2nc(C(F)(F)F)cn2C(C)C)c(Cl)c1 [Example 172]
Result: > 25 min

Request: Let me know recorded half-life at 1 μM for CC(C)n1ncc(Cl)c1-c1cc2n(n1)CCC(=O)N2Cc1ccc(-c2cn(C)c(C(F)(F)F)n2)c(F)c1 [Example 130] , thanks.
Result: > 25 min
